Data credit: paper PMC7329366

- Experimental details: Plasma pharmacokinetics after a single oral RK dose, male vs female mice
- Format: in vivo, C57BL/6J mice
- Settings: female, C57BL/6J, mouse, plasma, po, 200 mg/kg
Assay endpoint: Cmax (µM)

CC(=O)CCc1ccc(O)cc1 [RK, 4-(4-hydroxyphenyl)-2-butanone]	281
COc1cc(CCC(C)=O)ccc1O [VLAce, vanillylacetone]	9.94
OCCc1ccc(O)c(O)c1 [3,4-DHPE, 2-(3,4-dihydroxyphenyl)ethanol]	0.024

[1] COc1ccc(CCC(C)=O)cc1 [RK-Me, 4-(4-methoxy-phenyl)-2-butanone]
[2] OCCc1ccc(O)cc1 [4-HPE, 2-(4-hydroxyphenyl)ethanol]
Sorting ascending by Cmax, which comes first: 1 or 2 ? // caller expects the label of the chosen entry
1
(1: 0.086 µM, 2: 43.6 µM)

###

- Experimental details: Plasma pharmacokinetics after a single oral RK dose, male vs female mice
- Type: in vivo, C57BL/6J mice
- Settings: female, C57BL/6J, mouse, plasma, po, 200 mg/kg
Assay endpoint: half-life (min)

CC(=O)C=Cc1ccc(O)c(O)c1 [DHPhLiAce, 3,4-dihydroxybenzylideneacetone]	30

[A] COc1ccc(CCC(C)=O)cc1 [RK-Me, 4-(4-methoxy-phenyl)-2-butanone]
[B] OCCc1ccc(O)c(O)c1 [3,4-DHPE, 2-(3,4-dihydroxyphenyl)ethanol]
Sorting ascending by half-life, which comes first: A or B ? // caller expects the label of the chosen entry
A

###

- Experimental details: Plasma pharmacokinetics after a single oral RK dose, male vs female mice
- Type: in vivo, C57BL/6J mice
- Settings: male, C57BL/6J, mouse, plasma, po, 200 mg/kg
Assay endpoint: half-life (min)

Record excerpt, results attached:
COc1cc(CCC(C)=O)ccc1O	46.4
OCCc1ccc(O)cc1 [4-HPE, 2-(4-hydroxyphenyl)ethanol]	104
CC(=O)C=Cc1ccc(O)c(O)c1 [DHPhLiAce, 3,4-dihydroxybenzylideneacetone]	41.4
COc1ccc(CCC(C)=O)cc1	26.7

[1] CC(=O)CCc1ccc(O)cc1 [RK, 4-(4-hydroxyphenyl)-2-butanone]
[2] OCCc1ccc(O)c(O)c1 [3,4-DHPE, 2-(3,4-dihydroxyphenyl)ethanol]
Endpoint returns the identifier whose half-life is numerically larger, either 1 or 2 . // caller expects the label of the chosen entry
1
